molecular target: Histone deacetylase 2 (Homo sapiens, UniProt Q92769); settings: at 10 µM
Sequence (Q92769 whole entry): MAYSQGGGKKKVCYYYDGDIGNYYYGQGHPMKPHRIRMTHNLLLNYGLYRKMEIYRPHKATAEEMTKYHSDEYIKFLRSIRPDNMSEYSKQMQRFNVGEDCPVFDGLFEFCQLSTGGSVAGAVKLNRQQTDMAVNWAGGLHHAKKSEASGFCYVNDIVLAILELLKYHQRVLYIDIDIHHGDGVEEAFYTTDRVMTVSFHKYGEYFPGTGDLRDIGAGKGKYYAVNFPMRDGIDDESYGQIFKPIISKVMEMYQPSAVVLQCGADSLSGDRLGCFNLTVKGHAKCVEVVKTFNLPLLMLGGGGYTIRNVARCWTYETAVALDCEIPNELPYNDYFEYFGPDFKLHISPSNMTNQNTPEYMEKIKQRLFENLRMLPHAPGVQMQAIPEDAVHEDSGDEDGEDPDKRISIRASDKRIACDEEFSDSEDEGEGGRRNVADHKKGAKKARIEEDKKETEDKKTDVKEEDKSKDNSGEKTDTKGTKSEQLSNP
Description: Inhibition of HDAC2 (unknown origin) at 10 uM using Ac-Leu-GlyLys(Ac)-AMC as substrate preincubated for 10 mins followed by substrate addition measured after 30 mins by fluorescence analysis
For each entry below, report its inhibition value.
Report the figure in % without appending any unit label.

Problem: Consider the compound shown here: `CCOc1cc(NC(=O)CCCCCCC(=O)NCCc2ccccc2)cc2c1OCC([N+](=O)[O-])=C2` What is its recorded inhibition?
Solution: 8

Problem: Consider the compound shown here: `CCOc1cc(NC(=O)CCCCNC(=O)[C@H](N)Cc2ccccc2)cc2c1OCC([N+](=O)[O-])=C2` What is its recorded inhibition?
Solution: 90

Problem: Consider the compound shown here: `CCOc1cc(NC(=O)CCCCCCC(=O)Nc2ccccc2N)cc2c1OCC([N+](=O)[O-])=C2` What is its recorded inhibition?
Solution: 93

Problem: Consider the compound shown here: `Nc1ccccc1NC(=O)c1ccc(CNC(=O)OCc2cccnc2)cc1` What is its recorded inhibition?
Solution: 98

Problem: Consider the compound shown here: `CCOc1cc(NC(=O)CCCCC(=O)Nc2ccccc2N)cc2c1OCC([N+](=O)[O-])=C2` What is its recorded inhibition?
Solution: 91

Problem: Consider the compound shown here: `CCOc1cc(NC(=O)CCCCCNC(=O)CCCc2ccccc2)cc2c1OCC([N+](=O)[O-])=C2` What is its recorded inhibition?
Solution: 8

Problem: Consider the compound shown here: `CCOc1cc(NC(=O)CCCCCC(=O)Nc2cc(-c3ccc(C)s3)ccc2N)cc2c1OCC([N+](=O)[O-])=C2` What is its recorded inhibition?
Solution: 62

Problem: Consider the compound shown here: `CCOc1cc(NC(=O)CCCCCCC(=O)Nc2cc(-c3ccccc3)ccc2N)cc2c1OCC([N+](=O)[O-])=C2` What is its recorded inhibition?
Solution: 72

###

pIC50, Histone deacetylase 1 (Homo sapiens): measured values
pIC50 is defined as minus the log10 of a concentration measured in mol/L.

Problem: Consider the molecule shown here: `CCOc1cc(NC(=O)CCCCCC(=O)Nc2cc(-c3ccc(C)s3)ccc2N)cc2c1OCC([N+](=O)[O-])=C2` What is its recorded pIC50?
Solution: 6.44

Problem: Consider the molecule shown here: `CCOc1cc(NC(=O)CCCCCC(=O)Nc2ccccc2N)cc2c1OCC([N+](=O)[O-])=C2` What is its recorded pIC50?
Solution: 6.54

Problem: Consider the molecule shown here: `CCOc1cc(NC(=O)CCCCCCC(=O)Nc2cc(-c3ccccc3)ccc2N)cc2c1OCC([N+](=O)[O-])=C2` What is its recorded pIC50?
Solution: 6.75

Problem: Consider the molecule shown here: `CCOc1cc(NC(=O)CCCCNC(=O)[C@H](N)Cc2ccccc2)cc2c1OCC([N+](=O)[O-])=C2` What is its recorded pIC50?
Solution: 6.13

###

molecular target: Histone deacetylase 2 (Homo sapiens, UniProt Q92769); conditions: at 10 µM;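 note: enzyme incubated 10 min with compound before adding an acetyl-lysine AMC peptide substrate, fluorescence read 30 min later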
For each entry below, report its inhibition value.

Problem: Consider the compound shown here: `CCOc1cc(NC(=O)CCCCC(=O)Nc2cc(-c3ccccc3)ccc2N)cc2c1OCC([N+](=O)[O-])=C2` What is its recorded inhibition?
Solution: 59%

Problem: Consider the compound shown here: `CCOc1cc(NC(=O)CCCCC(=O)NCCc2ccccc2)cc2c1OCC([N+](=O)[O-])=C2` What is its recorded inhibition?
Solution: 3%

Problem: Consider the compound shown here: `CCOc1cc(NC(=O)CCCCCNC(=O)Cc2ccccc2)cc2c1OCC([N+](=O)[O-])=C2` What is its recorded inhibition?
Solution: 0%

Problem: Consider the compound shown here: `CCOc1cc(NC(=O)CCCCCCC(=O)Nc2cc(-c3ccc(C)s3)ccc2N)cc2c1OCC([N+](=O)[O-])=C2` What is its recorded inhibition?
Solution: 55%

Problem: Consider the compound shown here: `CCOc1cc(NC(=O)CCCCCC(=O)Nc2ccccc2N)cc2c1OCC([N+](=O)[O-])=C2` What is its recorded inhibition?
Solution: 96%

Problem: Consider the compound shown here: `CCOc1cc(NC(=O)CCCCCC(=O)NCCc2ccccc2)cc2c1OCC([N+](=O)[O-])=C2` What is its recorded inhibition?
Solution: 0%

Problem: Consider the compound shown here: `CCOc1cc(NC(=O)CCCCC(=O)Nc2cc(-c3ccc(C)s3)ccc2N)cc2c1OCC([N+](=O)[O-])=C2` What is its recorded inhibition?
Solution: 32%

Problem: Consider the compound shown here: `CCOc1cc(NC(=O)CCCCCC(=O)Nc2cc(-c3ccccc3)ccc2N)cc2c1OCC([N+](=O)[O-])=C2` What is its recorded inhibition?
Solution: 81%
